Biological target: Muscarinic acetylcholine receptor M2 (Homo sapiens)
Sequence (P08172 whole entry): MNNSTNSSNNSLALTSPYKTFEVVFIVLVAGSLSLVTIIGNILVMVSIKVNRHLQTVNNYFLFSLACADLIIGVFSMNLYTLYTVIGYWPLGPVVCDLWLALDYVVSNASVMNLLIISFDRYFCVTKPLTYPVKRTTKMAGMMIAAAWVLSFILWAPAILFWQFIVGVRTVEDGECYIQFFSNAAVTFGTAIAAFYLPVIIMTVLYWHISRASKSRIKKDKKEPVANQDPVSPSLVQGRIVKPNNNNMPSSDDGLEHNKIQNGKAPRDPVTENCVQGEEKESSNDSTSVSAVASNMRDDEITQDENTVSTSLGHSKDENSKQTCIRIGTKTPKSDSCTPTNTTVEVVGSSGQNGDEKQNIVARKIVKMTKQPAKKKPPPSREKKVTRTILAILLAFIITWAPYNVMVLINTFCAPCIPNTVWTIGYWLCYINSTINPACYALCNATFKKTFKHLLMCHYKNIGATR
Test: Binding affinity to human muscarinic M2 receptor expressed in CHO-K9 cells assessed as unspecific binding at Kd incubated in dark at 22 degree C for 2 hrs in presence of atropine by FACSCantoII flow cytometric saturation binding study relative to control
Type: cell-based
Conditions: read-out: pKd (converted)
# reported Kd; entries follow

# CHEMICAL STRUCTURE, Kd / nM
data = [
    ("Cc1cc(/C=C/c2cc3c4c(c2)CCCN4CCC3)cc(C)[n+]1CCNC(=O)CCc1cn(CCCCC2CCN(CC(=O)N3c4ccccc4NC(=O)c4ccccc43)CC2)cn1", 2),
    ("O=C(CCCCCNC(=O)COc1ccc(/C=C/C2=[N+]3C(=Cc4ccc(-c5cccs5)n4[B-]3(F)F)C=C2)cc1)NCCNC(=O)CCc1cn(CCCCC2CCN(CC(=O)N3c4ccccc4NC(=O)c4ccccc43)CC2)cn1", 3.89),
    ("CN(C)c1ccc2c(-c3ccc(C(=O)NCCNC(=O)CCc4cn(CCCCC5CCN(CC(=O)N6c7ccccc7NC(=O)c7ccccc76)CC5)cn4)cc3C(=O)[O-])c3ccc(=[N+](C)C)cc-3oc2c1", 4.37),
    ("Cc1cc(/C=C/C=C/c2ccc(N(C)C)cc2)cc(C)[n+]1CCN1CCN(CCCCC2CCN(CC(=O)N3c4ccccc4NC(=O)c4ccccc43)CC2)CC1", 2.34),
    ("Cc1cc(/C=C/c2cc3c4c(c2)CCCN4CCC3)cc(C)[n+]1CCN1CCN(CCCCC2CCN(CC(=O)N3c4ccccc4NC(=O)c4ccccc43)CC2)CC1", 0.646),
]
